IC50 reference
Test system: Jurkat cells
measurementProtocol: Adaptation to G2 cell cycle arrest (G1 increment) in X-ray pre-arrested Jurkat cells, flow cytometry
Type: cell-based, human
particulars: Homo sapiens, Jurkat, 24 h, Table 2; concentration causing half-maximal increase of % cells in G1 phase (G1 increment); Jurkat pre-arrested by 10 Gy X-ray, 24 hours with compound
Field format: number, assumed nM, no unit text.

molecule	observationType	number
CC1=C(CCC(=O)N(C)c2ccccc2)C(=O)N(Nc2ccc(C(F)(F)F)c(Cl)n2)C1=O [Compound S01759]	IC50	625
CC1=C(C)C(=O)N(Nc2cc(CN3CCN(C(=O)c4ccccc4Cl)CC3)c3ccc(Br)cc3n2)C1=O [Compound S01878]	IC50	234
CC1=C(C)C(=O)N(Nc2ccc(Br)c3ccccc23)C1=O [Compound S00942]	IC50	625
CC1=C(C)C(=O)N(Nc2cc(Cl)c3cccc(Br)c3n2)C1=O [Compound S01247]	IC50	78
CC1=C(C)C(=O)N(Nc2ccc(C(F)(F)F)c(-c3ccc(Cl)cc3)n2)C1=O [Compound S01371]	IC50	625

Data request: Quick one: IC50 for COc1ccc(C(=O)N2CCN(Cc3cc(NN4C(=O)C(C)=C(C)C4=O)nc4cc(Br)ccc34)CC2)cc1 [Compound S01801] ?
Data returned: 625

Data request: Quick one: IC50 for CC1=C(C)C(=O)N(Nc2cc(Cl)c3ccc(Br)cc3n2)C1=O [Compound S01311] ?
Data returned: 300

Data request: Quick one: IC50 for CC1=C(C)C(=O)N(Nc2cc(Cl)c3cccc(C)c3n2)C1=O [Compound S00871] ?
Data returned: 625

Data request: Quick one: IC50 for CC1=C(C)C(=O)N(Nc2nc(Cl)c(C(F)(F)F)cc2Br)C1=O [Compound S01981] ?
Data returned: 78

Data request: Quick one: IC50 for CC1=C(C)C(=O)N(N(C)c2ccc(C(F)(F)F)c(Cl)n2)C1=O [Compound S00170] ?
Data returned: 120

Data request: Quick one: IC50 for CC1=C(C)C(=O)N(Nc2cc(Cl)c(Cl)c(Cl)c2)C1=O [Compound S00832] ?
Data returned: 300

Data request: Quick one: IC50 for CC1=C(C)C(=O)N(Nc2ccc(C(F)(F)F)c(-c3cccc(Cl)c3)n2)C1=O [Compound S01474] ?
Data returned: 625

Data request: Quick one: IC50 for CC1=C(C)C(=O)N(Nc2ccc(C(F)(F)F)c(CC(C)C)n2)C1=O [Compound S01457] ?
Data returned: 300

Data request: Quick one: IC50 for CC1=C(CCC(=O)OC(C)(C)C)C(=O)N(Nc2ccc(C(F)(F)F)c(Cl)n2)C1=O [Compound S01860] ?
Data returned: 30

Data request: Quick one: IC50 for CC1=C(C)C(=O)N(Nc2cc(CN3CCN(Cc4ccccc4)CC3)c3ccc(Br)cc3n2)C1=O [Compound S01268] ?
Data returned: 625

Data request: Quick one: IC50 for CC1=C(C)C(=O)N(N(C)c2ccc(C(F)(F)F)c(Br)n2)C1=O [Compound S01007] ?
Data returned: 120

Data request: Quick one: IC50 for COc1ccc(-c2cc(NN3C(=O)C(C)=C(C)C3=O)nc3c(Cl)cccc23)cc1 [Compound S01191] ?
Data returned: 625

Data request: Quick one: IC50 for CC1=C(C)C(=O)N(Nc2cc(CN3CCN(C(=O)c4ccc(N(C)C)cc4)CC3)c3ccc(Br)cc3n2)C1=O [Compound S01880] ?
Data returned: 312

Data request: Quick one: IC50 for CC1=C(C)C(=O)N(Nc2cc(C(F)(F)F)c3ccc(Cl)c(Cl)c3n2)C1=O [Compound S01455] ?
Data returned: 156

Data request: Quick one: IC50 for CC1=C(C)C(=O)N(Nc2ccc(C(F)(F)F)c(-c3ccc(C)cc3)n2)C1=O [Compound S01393] ?
Data returned: 625

Data request: Quick one: IC50 for CC1=C(CCC(=O)NC(C)(C)C)C(=O)N(Nc2ccc(C(F)(F)F)c(Cl)n2)C1=O [Compound S01758] ?
Data returned: 156

Data request: Quick one: IC50 for CC1=C(C)C(=O)N(Nc2cc(Cl)nc(-c3ccccc3)c2C(F)(F)F)C1=O [Compound S01688] ?
Data returned: 625

Data request: Quick one: IC50 for CC1=C(C)C(=O)N(Nc2ccc3cccc(Cl)c3n2)C1=O [Compound S00585] ?
Data returned: 300

Data request: Quick one: IC50 for O=C1C2=C(CCCC2)C(=O)N1Nc1ccc(C(F)(F)F)c(Cl)n1 [Compound S00186] ?
Data returned: 625

Data request: Quick one: IC50 for CC1=C(C)C(=O)N(Nc2cc(C(F)(F)F)c3ccccc3n2)C1=O [Compound S00873] ?
Data returned: 300

Data request: Quick one: IC50 for COCC1=C(C)C(=O)N(Nc2ccc(C(F)(F)F)c(Cl)n2)C1=O [Compound S01599] ?
Data returned: 120

Data request: Quick one: IC50 for CC1=C(C)C(=O)N(Nc2ccc(Br)c(C(F)(F)F)c2)C1=O [Compound S00516] ?
Data returned: 625

Data request: Quick one: IC50 for COC(=O)CCC1=C(C)C(=O)N(Nc2ccc(C(F)(F)F)c(Cl)n2)C1=O [Compound S01648] ?
Data returned: 78

Data request: Quick one: IC50 for CCOC(=O)C(CC1=C(C)C(=O)N(Nc2ccc(C(F)(F)F)c(Cl)n2)C1=O)C(=O)OCC [Compound S01712] ?
Data returned: 156

Data request: Quick one: IC50 for CC1=C(C)C(=O)N(Nc2cc(Cl)c3ccc(Cl)c(Cl)c3n2)C1=O [Compound S01078] ?
Data returned: 78

Data request: Quick one: IC50 for CC1=C(C)C(=O)N(Nc2ccc(C(F)(F)F)c(Cc3ccccc3)n2)C1=O [Compound S01762] ?
Data returned: 625

Data request: Quick one: IC50 for CC1=C(C)C(=O)N(Nc2nc(Cl)cc3ccccc23)C1=O [Compound S01098] ?
Data returned: 450
